All values here come from paper PMC11816722.

# Target System: NPRL3 (Homo sapiens, UniProt Q12980)
# Sequence (Q12980 whole entry): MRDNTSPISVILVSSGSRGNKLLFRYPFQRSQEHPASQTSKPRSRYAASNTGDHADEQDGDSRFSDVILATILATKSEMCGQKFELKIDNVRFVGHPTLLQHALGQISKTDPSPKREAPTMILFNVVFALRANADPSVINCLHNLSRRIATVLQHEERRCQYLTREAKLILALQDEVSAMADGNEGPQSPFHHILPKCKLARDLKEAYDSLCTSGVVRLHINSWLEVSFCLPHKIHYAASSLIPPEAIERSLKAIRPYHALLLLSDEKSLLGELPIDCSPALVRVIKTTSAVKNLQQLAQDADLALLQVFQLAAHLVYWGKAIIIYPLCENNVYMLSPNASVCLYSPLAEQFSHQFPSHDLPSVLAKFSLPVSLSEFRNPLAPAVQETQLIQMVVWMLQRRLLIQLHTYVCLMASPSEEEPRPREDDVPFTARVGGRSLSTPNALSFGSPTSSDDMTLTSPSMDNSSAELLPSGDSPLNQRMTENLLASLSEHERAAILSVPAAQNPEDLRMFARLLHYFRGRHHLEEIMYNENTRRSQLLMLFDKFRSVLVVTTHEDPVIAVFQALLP
# Method Summary: SPR (Biacore T200, immobilized recombinant NPRL3, steady-state […] fit); supported by DARTS in A549L6 lysate
Observation Type: Kd

The reported Kd of the molecule O=c1[nH]nc2c3c(cccc13)N=C(CN1Cc3ccccc3C1)N2 was 11.8 µM
